# experimental target: HIV Env of isolate 1056_10_TA11_1826 (clade B) (HIV)
# assay protocol: cell-based or functional assay
recorded endpoint: IC50 (µg/ml) with constrains (µg/mL)
Number in µg/mL, nothing else.

IC50 (µg/ml) with constrains for ePGDM9 (antibody, V domains shown) VH: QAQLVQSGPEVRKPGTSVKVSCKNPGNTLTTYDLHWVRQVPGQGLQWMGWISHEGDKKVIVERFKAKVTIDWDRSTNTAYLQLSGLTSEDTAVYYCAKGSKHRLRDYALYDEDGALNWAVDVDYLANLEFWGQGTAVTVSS VL: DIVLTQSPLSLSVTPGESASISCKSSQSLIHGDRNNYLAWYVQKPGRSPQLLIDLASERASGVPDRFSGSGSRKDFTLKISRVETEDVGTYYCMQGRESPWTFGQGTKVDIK is 0.903
